- target_under_test: human recombinant mGluR5 (Homo sapiens, UniProt P41594)
- Sequence (P41594 21-1212): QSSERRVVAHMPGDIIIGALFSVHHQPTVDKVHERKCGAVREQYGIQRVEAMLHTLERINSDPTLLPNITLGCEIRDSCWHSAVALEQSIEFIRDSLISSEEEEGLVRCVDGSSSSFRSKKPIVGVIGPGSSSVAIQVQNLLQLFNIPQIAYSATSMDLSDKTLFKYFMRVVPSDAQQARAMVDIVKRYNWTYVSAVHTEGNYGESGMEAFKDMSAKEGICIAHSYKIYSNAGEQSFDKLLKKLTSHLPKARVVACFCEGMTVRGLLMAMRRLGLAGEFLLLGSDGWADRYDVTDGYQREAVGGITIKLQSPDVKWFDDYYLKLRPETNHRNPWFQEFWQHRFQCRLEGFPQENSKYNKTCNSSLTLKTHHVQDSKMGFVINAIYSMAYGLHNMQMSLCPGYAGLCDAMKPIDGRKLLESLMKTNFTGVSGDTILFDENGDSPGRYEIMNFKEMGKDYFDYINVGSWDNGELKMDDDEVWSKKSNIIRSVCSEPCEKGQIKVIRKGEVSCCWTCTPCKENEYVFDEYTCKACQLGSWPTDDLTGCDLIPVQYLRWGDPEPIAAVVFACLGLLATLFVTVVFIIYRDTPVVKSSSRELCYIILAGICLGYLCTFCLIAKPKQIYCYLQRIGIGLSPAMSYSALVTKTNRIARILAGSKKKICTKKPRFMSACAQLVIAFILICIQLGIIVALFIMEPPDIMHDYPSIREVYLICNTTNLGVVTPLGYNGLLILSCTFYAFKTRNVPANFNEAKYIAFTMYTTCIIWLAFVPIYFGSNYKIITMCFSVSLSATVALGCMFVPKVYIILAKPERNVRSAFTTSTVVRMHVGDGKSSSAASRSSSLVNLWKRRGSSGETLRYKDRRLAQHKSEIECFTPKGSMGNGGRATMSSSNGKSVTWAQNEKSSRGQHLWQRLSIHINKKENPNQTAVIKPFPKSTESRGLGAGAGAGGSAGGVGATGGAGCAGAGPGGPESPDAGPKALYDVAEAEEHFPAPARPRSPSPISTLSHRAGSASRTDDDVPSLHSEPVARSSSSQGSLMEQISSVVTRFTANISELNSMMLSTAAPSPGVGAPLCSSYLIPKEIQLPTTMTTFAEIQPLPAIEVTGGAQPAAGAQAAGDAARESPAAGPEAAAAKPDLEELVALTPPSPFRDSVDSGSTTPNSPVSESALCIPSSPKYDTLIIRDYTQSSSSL
- assay_explanation: positive modulation of mGluR5, calcium based FLIPR assay
- cond: HEK 293 cell line expressing human recombinant mGluR5; EC50 of the modulation from peak Ca fluorescence signal after glutamate at approx. 5% basal stimulation
- Protocol: The positive modulation of mGluR5 is measured in a HEK 293 cell line expressing human recombinant mGluR5 and is detected with calcium based FLIPR assay. […] 20 μl of each compound solution are then transferred to the assay plate and the Ca2+ kinetic is measured to determine any intrinsic compound activity. […] The peak height of the Ca release related fluorescence signal (9-66) is used for the EC50. The EC50 of the modulation is calculated over a nonlinear regression with GraphPad Prism (Table 1).
measure: EC50 (nM)

Some compounds with recorded EC50:
compound	target_under_test	unit_tag	EC50
CCCc1cc(-c2ccc(F)c(C)c2)nn1CC(=O)N1CCC(c2cc(OC)ncn2)CC1	human recombinant mGluR5 (Homo sapiens, UniProt P41594)	nM	199
Cc1ccc(NC2CCN(C(=O)Cn3nc(-c4ccccc4)cc3-c3ccccc3)CC2)c(C)c1	human recombinant mGluR5 (Homo sapiens, UniProt P41594)	nM	1440
CCc1cc(-c2ccc(F)c(C)c2)nn1CC(=O)N1CCC(c2nnc(C)o2)CC1	human recombinant mGluR5 (Homo sapiens, UniProt P41594)	nM	430
COCc1cc(-c2ccc(F)c(C)c2)nn1CC(=O)N1Cc2nc(C)sc2C1	human recombinant mGluR5 (Homo sapiens, UniProt P41594)	nM	279
COCc1cc(-c2ccc(F)c(C)c2)nn1CC(=O)N1CCc2nc(C)oc2C1	human recombinant mGluR5 (Homo sapiens, UniProt P41594)	nM	740
Cc1nc2c(s1)CCN(C(=O)Cn1nc(-c3cc(C)c(C)cn3)cc1-c1ccccc1)CC2	human recombinant mGluR5 (Homo sapiens, UniProt P41594)	nM	68
COc1cccc(N2CCN(C(=O)Cn3nc(-c4ccccc4)cc3-c3ccccc3)CC2=O)c1 [Example 7.01.020]	human recombinant mGluR5 (Homo sapiens, UniProt P41594)	nM	258
COc1cc(-c2cc(C(C)C)n(CC(=O)N3CCc4nc(N)sc4CC3)n2)ccc1F	human recombinant mGluR5 (Homo sapiens, UniProt P41594)	nM	323
CCc1cc(-c2ccc(F)c(C)c2)nn1CC(=O)N1Cc2nc(C)oc2C1	human recombinant mGluR5 (Homo sapiens, UniProt P41594)	nM	26
CCCc1cc(-c2ccc(F)c(C)n2)nn1CC(=O)N1CCc2nc(C)sc2CC1	human recombinant mGluR5 (Homo sapiens, UniProt P41594)	nM	172

a. O=C(Cn1nc(-c2ccccc2)cc1-c1ccccc1)N1CCN(c2nccs2)CC1
b. CCc1cc(-c2ccc(F)c(C)c2)nn1CC(=O)N1CCN(c2nc(C)co2)CC1
Task: Recorded EC50 values differ for a and b ; which one is higher? // output: label of the selected item
Result: b
(b: 370 nM, a: 40 nM)

----------
- target_under_test: human recombinant mGluR5 (Homo sapiens, UniProt P41594)
- assay_explanation: positive modulation of mGluR5, calcium based FLIPR assay
- cond: HEK 293 cell line expressing human recombinant mGluR5; EC50 of the modulation from peak Ca fluorescence signal after glutamate at approx. 5% basal stimulation
measure: EC50 (nM)

// worked examples, EC50 included
molecule	EC50, nM
CCCc1cc(-c2ccc(F)c(C)c2)nn1CC(=O)N1CCC(c2ncc(C)o2)CC1	36
CCc1nnc(C2CCN(C(=O)Cn3nc(-c4ccc(F)c(C)c4)cc3CC)CC2)o1	209
Cc1nc2c(s1)CCN(C(=O)Cn1nc(-c3ccc(F)cc3)cc1C(C)C)CC2	251

a. N#Cc1cccc(-c2cc(-c3ccccc3)n(CC(=O)N3CCc4nc(N)sc4CC3)n2)c1
b. Cc1cc(-c2cc(C3CCCCC3)n(CC(=O)N3CCc4nc(N)sc4CC3)n2)ccc1F
Task: From the recorded data, which exceeds the other in EC50: a or b ? Label of pick, please.
Result: b

A. CCc1cccc(-c2cc(CC)n(CC(=O)N3CCc4nc(C)sc4CC3)n2)c1
B. Cc1cnc(C2=CCN(C(=O)Cn3nc(-c4ccc(F)c(C)c4)cc3-c3ccccc3)CC2)s1
Task: Lab log: flag the item ( A or B ) with the smaller EC50 figure. Record your answer as the label of the chosen record.
Result: B
(B: 15 nM, A: 156 nM)

a. N#Cc1ccc2c(c1)CN(C(=O)Cn1nc(-c3ccccc3)cc1-c1ccccc1)CC2
b. COc1cc(C2CCN(C(=O)Cn3nc(-c4cccc(C)c4)cc3-c3ccccc3)CC2)ncn1
Task: Please indicate which entry, a or b , has the lower recorded EC50 value. Provide the label of your selected option as the answer.
Result: b
